- Assay: NCI Yeast Anticancer Drug Screen. Data for the mlh1 rad18 strain (AID 175)
- Reported Conditions: S. cerevisiae mlh1 rad18 strain growth inhibition; at 50.0 µM; stronger effect = higher value
The panel holds about 79,000 compounds, 15% with a hit somewhere; the sample as a whole holds those more often. Active and inactive are the calls of the source. Rule as the data show it: active = growth inhibition above about 70%; inactive = the rest.
Reported Property: growth inhibition

For orientation, consider the following solved cases.
{"columns": ["Compound", "Test Value"],
 "data": [
  ["CCC(C)(O)c1cnc(CC(C)C)c(=O)n1O (stereo not given)", "52.2% (inactive)"],
  ["CCOC(=O)c1cn(CC)c2ccc3ccsc3c2c1=O", "-30.9% (inactive)"]
]}

Fill in the blank: the reported growth inhibition of `Oc1ccc2ccccc2c1/C=N\Sc1ccc(Br)cc1` is ____.
49.5% (inactive)

Quick one: growth inhibition of `c1ccc(/N=C2\c3ccccc3CN2c2ccccn2)nc1` ?
-1.35% (inactive)

I am curious: what growth inhibition value has been reported for `O=c1c2cc([N+](=O)[O-])ccc2sc2ccsc12` ?
11.9% (inactive)

State the recorded growth inhibition for this entry: COc1cccc(C(N)C(=O)O)c1 (stereo not given)
-17.4% (inactive)

Given `O=C1/C(=C/c2ccccc2)CC/C1=C\c1ccccc1` , state its recorded growth inhibition.
3.85% (inactive)
